Value source: patent US8207175B2

Target: AfChiB1 (Aspergillus fumigatus)
Test: biochemical
Assay type: biochemical
Text: AfChiB1 was expressed, purified and inhibition studies performed as previously described [F. V. Rao, D. R. Houston, R. G. Boot, J. M. F. G. Aerts, M. Hodkinson, D. J. Adams, K. Shiomi, S. Omura, and D. M. F. van Aalten, Specificity and affinity of natural product cyclopentapeptide inhibitors against Aspergillus fumigatus, human and bacterial chitinases, Chemistry & Biology, 12, 65-76 (2005)]. […]
Form field: IC50 (one value per entry).
Kindly answer with a numeric value in µM, unit omitted.

>  <query.smiles>
Cn1cnc2c1c(=O)n(CCCn1c(=O)c3c(ncn3C)n(C)c1=O)c(=O)n2C

>  <system>
AfChiB1 (Aspergillus fumigatus)

>  <IC50 [µM]>
0.23

$$$$
>  <query.smiles>
Cn1cnc2c1c(=O)n(CCCCn1c(=O)c3c(ncn3C)n(C)c1=O)c(=O)n2C

>  <system>
AfChiB1 (Aspergillus fumigatus)

>  <IC50 [µM]>
6

$$$$

Recorded IC50 for `Cn1cnc2c1c(=O)n(CCn1c(=O)c3c(ncn3C)n(C)c1=O)c(=O)n2C` with AfChiB1 (Aspergillus fumigatus), please?
6

====

Target: H.AMCase (human AMCase) (Homo sapiens)
Sequence (Q9BZP6 22-476): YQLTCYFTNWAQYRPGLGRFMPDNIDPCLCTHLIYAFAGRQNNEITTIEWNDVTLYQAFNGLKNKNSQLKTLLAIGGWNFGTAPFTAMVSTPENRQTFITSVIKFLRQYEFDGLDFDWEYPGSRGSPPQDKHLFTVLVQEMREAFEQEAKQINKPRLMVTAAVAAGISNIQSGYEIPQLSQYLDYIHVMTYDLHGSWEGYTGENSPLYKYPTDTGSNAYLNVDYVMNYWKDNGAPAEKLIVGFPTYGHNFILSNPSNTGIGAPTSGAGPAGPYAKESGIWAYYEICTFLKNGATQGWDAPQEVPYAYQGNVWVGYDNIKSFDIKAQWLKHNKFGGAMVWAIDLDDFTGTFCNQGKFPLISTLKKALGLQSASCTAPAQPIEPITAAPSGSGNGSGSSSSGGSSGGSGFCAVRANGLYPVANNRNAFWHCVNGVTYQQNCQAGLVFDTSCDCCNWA
Assay: Further inhibition studies, human AMCase (Table 2)
Assay type: biochemical
Settings: human AMCase, Bio substrate, pH 4.5; read-out: H.AMCase Bio pH 4.5 (IC50)
reported.property: IC50 (µM)
Kindly answer with a numeric value in µM, unit omitted.

>  <query.smiles>
Cn1c(=O)c2c(ncn2C)n(C)c1=O

>  <unit.text>
µM

>  <IC50>
500

$$$$

Name the recorded IC50 for `CC(=O)CCCCn1c(=O)c2c(ncn2C)n(C)c1=O` .
400

====

Biological target: AfChiB1 (Aspergillus fumigatus, UniProt Q873X9)
reported.property: pKi
// field semantics: pKi = negative decimal log of concentration (mol/L)

Recorded pKi for `CC(=O)CCCCn1c(=O)c2c(ncn2C)n(C)c1=O` with AfChiB1 (Aspergillus fumigatus, UniProt Q873X9), please?
4.43

====

Molecular target: M.Chito (mouse chitotriosidase) (Mus musculus)
Sequence (Q9D7Q1 22-464): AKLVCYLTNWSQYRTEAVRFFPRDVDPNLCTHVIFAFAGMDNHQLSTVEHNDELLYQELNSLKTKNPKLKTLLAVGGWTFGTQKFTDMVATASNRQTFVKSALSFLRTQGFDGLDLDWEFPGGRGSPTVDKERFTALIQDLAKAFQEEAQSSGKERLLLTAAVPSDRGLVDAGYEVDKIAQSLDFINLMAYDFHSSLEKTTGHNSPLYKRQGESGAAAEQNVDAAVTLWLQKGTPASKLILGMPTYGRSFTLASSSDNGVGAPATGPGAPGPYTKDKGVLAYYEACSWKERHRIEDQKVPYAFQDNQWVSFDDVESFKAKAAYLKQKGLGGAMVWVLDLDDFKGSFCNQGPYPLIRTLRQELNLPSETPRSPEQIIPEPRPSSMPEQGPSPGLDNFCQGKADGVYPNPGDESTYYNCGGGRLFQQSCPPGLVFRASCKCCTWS
Test: Further inhibition studies, mouse chitotriosidase (Table 2)
Assay type: biochemical
reported.property: IC50

Name the recorded IC50 for `Cn1c(=O)c2[nH]cnc2n(C)c1=O` .
> 2 mM

====

Target: cellulase from Aspergillus niger
Test: Cellulase assay, 4-methylumbelliferyl-β-D-cellobioside
Conditions: 5 nM enzyme, 20 μM substrate, 30 min at 37° C.
reported.property: pIC50
// field semantics: pIC50 = negative decimal log of concentration (mol/L)

>  <query.smiles>
Cn1c(=O)c2c(ncn2C)n(C)c1=O

>  <measurement>
2.90

$$$$
>  <query.smiles>
Cn1c(=O)c2[nH]cnc2n(C)c1=O

>  <measurement>
3.00

$$$$

Name the recorded pIC50 for `CC(=O)CCCCn1c(=O)c2c(ncn2C)n(C)c1=O` .
3.06

====

Molecular target: AfChiB1 (Aspergillus fumigatus, UniProt Q873X9)
Assay: biochemical
Type: biochemical
Details: Table 5, N3 compounds, against AfChiB; read-out: IC50
Form field: IC50 (one value per entry).
Kindly answer with a numeric value in nM, unit omitted.

Name the recorded IC50 for `Cn1cnc2c1c(=O)n(CCCn1c(=O)c3c(ncn3C)n(CCN)c1=O)c(=O)n2C` .
78

Name the recorded IC50 for `Cn1cnc2c1c(=O)n(CCCn1c(=O)c3c(ncn3C)n(CCO)c1=O)c(=O)n2C` .
180

Name the recorded IC50 for `Cn1cnc2c1c(=O)n(CCCn1c(=O)c3c(ncn3C)n(CCCN)c1=O)c(=O)n2C` .
440

Name the recorded IC50 for `Cn1cnc2[nH]c(=O)n(CCCn3c(=O)c4c(ncn4C)n(C)c3=O)c(=O)c21` .
86
